- assay: xn = mol fraction of the nth substance listed, in the solute-free solvent
- condition.parameters: 283.15 K; x2 = 0.1
result.type: solubility (g/100 g solution)

A selection of reference data follows.
Q. State the recorded solubility (g/100 g solution) for this entry: O=CC(O)C(O)C(O)CO (stereo unspecified) + CCO + CCCCCC
A. 0.0708

Q. Reported solubility (g/100 g solution), molecule Cc1nc(C)c(C)nc1C + CO + CC#N : ____
A. 18.1

Q. Using the record for O=CC(O)C(O)C(O)CO (stereo unspecified) + CCO + ClCCl , report its solubility (g/100 g solution).
A. 0.222

Q. State the recorded solubility (g/100 g solution) for this entry: O=CC(O)C(O)C(O)CO (stereo unspecified) + CC(C)O + CCCCCC
A. 0.0751

(P) O=CC(O)C(O)C(O)CO (stereo unspecified) + CO + ClCCl
(Q) Cc1nc(C)c(C)nc1C + CCCCO + CC#N
Q. Compare the recorded solubility (g/100 g solution) of P and Q ; state which is larger. Response format: the label of the selected entry.
A. Q
